experiment: Clearance in mouse liver microsomes at 1 uM incubated for 10 mins by LC-MS/MS method
Format: ADME, Microsome
Quick rule for you: CLhep predicted at 1 µM under 40 mL/min/kg gets Met, anything else gets Not met.

Quick check: does CN1C[C@H](C(=O)Nc2ccccc2)[C@@H](c2ccc(/C=C/C(=O)Nc3ccccc3N)cc2)C1 (racemic) have CLhep predicted at 1 µM under 40 mL/min/kg?
Not met

Hello, is CLhep predicted at 1 µM of the following compound strictly smaller than 40 mL/min/kg? Nc1ccccc1NC(=O)/C=C/c1ccc([C@H]2CN(C3COC3)C[C@@H]2C(=O)Nc2ccc(Cl)cc2)cc1 (racemic)
Not met

# check: CLhep predicted at 1 µM < 40 mL/min/kg for Cc1ccc(NC(=O)[C@H]2CN(C)C[C@@H]2c2ccc(/C=C/C(=O)Nc3ccccc3N)cc2)cc1 (racemic)
Not met

Continuing:
Problem: For the compound N#CCN1C[C@H](C(=O)Nc2ccc(Cl)cc2)[C@@H](c2ccc(/C=C/C(=O)Nc3ccccc3N)cc2)C1 (racemic) , is CLhep predicted at 1 µM under 40 mL/min/kg?
Not met

Just wondering, is CLhep predicted at 1 µM of Nc1ccccc1NC(=O)/C=C/c1ccc(C(C(=O)Nc2ccc(Br)cc2)N2CC[C@H](O)C2)cc1 (stereo not given in full) below 40 mL/min/kg?
Not met

Would you kindly verify if CLhep predicted at 1 µM of CC(C)c1ccc(NC(=O)[C@H]2CN(C)C[C@@H]2c2ccc(/C=C/C(=O)Nc3ccccc3N)cc2)cc1 (racemic) is strictly less than 40 mL/min/kg?
Not met

In plain terms, does Nc1ccccc1NC(=O)/C=C/c1ccc([C@H]2CN(C3CCOCC3)C[C@@H]2C(=O)Nc2ccc(Cl)cc2)cc1 (racemic) come in under 40 mL/min/kg for CLhep predicted at 1 µM?
Not met

Given the entry Cc1ccc(NC(=O)[C@H]2CN(C)C[C@@H]2c2ccc(/C=C/C(=O)Nc3ccccc3N)cc2)cn1 (racemic) , would its reported CLhep predicted at 1 µM be below 40 mL/min/kg?
Not met

Given CN1C[C@H](C(=O)Nc2ccc(Cl)cc2)[C@@H](c2cnc(/C=C/C(=O)Nc3ccccc3N)cn2)C1 (racemic) , is recorded CLhep predicted at 1 µM strictly lower than 40 mL/min/kg?
Met

I wonder whether CN1C[C@H](C(=O)Nc2cccc(F)c2)[C@@H](c2ccc(/C=C/C(=O)Nc3ccccc3N)cc2)C1 (racemic) has CLhep predicted at 1 µM below 40 mL/min/kg. Can you tell?
Not met

Regarding Nc1ccccc1NC(=O)/C=C/c1ccc([C@H]2CN(CC(F)(F)F)C[C@@H]2C(=O)Nc2ccc(Cl)cc2)cc1 (racemic) , kindly confirm whether its CLhep predicted at 1 µM is beneath 40 mL/min/kg.
Met

Dear colleague, could you confirm whether CLhep predicted at 1 µM of Nc1ccccc1NC(=O)/C=C/c1ccc([C@H]2CN(CCO)C[C@@H]2C(=O)Nc2ccc(Cl)cc2)cc1 (racemic) falls below 40 mL/min/kg? Thanks.
Met

CLhep predicted at 1 µM strictly < 40 mL/min/kg for this compound? CN1C[C@H](C(=O)Nc2ccc(F)cc2F)[C@@H](c2ccc(/C=C/C(=O)Nc3ccccc3N)cc2)C1 (racemic)
Met

* * *

experiment: Clearance in mouse liver microsomes at 1 uM incubated for 10 mins by LC-MS/MS method
Type: ADME, Microsome
We label by threshold. Values of CLhep predicted at 1 µM strictly beneath 50 mL/min/kg are YES. Values of 50 mL/min/kg and up are NO.

Sample answers from the record:
Please determine if CCN(CC)C(=O)N1C[C@H](C(=O)Nc2ccc(Cl)cc2)[C@@H](c2ccc(/C=C/C(=O)Nc3ccccc3N)cc2)C1 (racemic) is below 50 mL/min/kg in terms of CLhep predicted at 1 µM.
NO

Lab log: compare recorded CLhep predicted at 1 µM with 50 mL/min/kg; is it strictly lower for Cc1cc(NC(=O)[C@H]2CN(C)C[C@@H]2c2ccc(/C=C/C(=O)Nc3ccccc3N)cc2)ccc1F (racemic) ?
NO

For this compound, is CLhep predicted at 1 µM lower than 50 mL/min/kg? CCNC(=O)N1C[C@H](C(=O)Nc2ccc(Cl)cc2)[C@@H](c2ccc(/C=C/C(=O)Nc3ccccc3N)cc2)C1 (racemic)
YES

hey, is CLhep predicted at 1 µM for Nc1ccccc1NC(=O)/C=C/c1ccc(C(NCCO)C(=O)Nc2ccc(C(F)(F)F)cc2)cc1 (racemic) lower than 50 mL/min/kg or not?
YES

Problem: For the compound CN1C[C@H](C(=O)Nc2ccc(C#N)cc2)[C@@H](c2ccc(/C=C/C(=O)Nc3ccccc3N)cc2)C1 (racemic) , is CLhep predicted at 1 µM under 50 mL/min/kg?
YES

Does this compound meet the criterion CLhep predicted at 1 µM < 50 mL/min/kg? CN1C[C@H](C(=O)N2CCCCC2)[C@@H](c2ccc(/C=C/C(=O)Nc3ccccc3N)cc2)C1 (racemic)
YES

Next:
Item COc1cccc(NC(=O)[C@H]2CN(C)C[C@@H]2c2ccc(/C=C/C(=O)Nc3ccccc3N)cc2)c1 (racemic) : CLhep predicted at 1 µM beneath 50 mL/min/kg, strictly?
NO

* * *

experiment: Clearance in Sprague-Dawley rat at 10 mg/kg, po or 2 mg/kg, iv by LC-MS/MS method
Assay type: ADME, organism-based
appliedConditions: in vivo
outcomeMeasure: clearance

Query (molecule): CN1C[C@H](C(=O)Nc2ccc(Cl)cc2)[C@@H](c2ccc(/C=C/C(=O)Nc3ccccc3N)nn2)C1 (racemic) ; field requested: clearance
120 mL/min/kg

* * *

studySystem: Histone deacetylase 7 (Homo sapiens, UniProt Q8WUI4)
Sequence (Q8WUI4 whole entry): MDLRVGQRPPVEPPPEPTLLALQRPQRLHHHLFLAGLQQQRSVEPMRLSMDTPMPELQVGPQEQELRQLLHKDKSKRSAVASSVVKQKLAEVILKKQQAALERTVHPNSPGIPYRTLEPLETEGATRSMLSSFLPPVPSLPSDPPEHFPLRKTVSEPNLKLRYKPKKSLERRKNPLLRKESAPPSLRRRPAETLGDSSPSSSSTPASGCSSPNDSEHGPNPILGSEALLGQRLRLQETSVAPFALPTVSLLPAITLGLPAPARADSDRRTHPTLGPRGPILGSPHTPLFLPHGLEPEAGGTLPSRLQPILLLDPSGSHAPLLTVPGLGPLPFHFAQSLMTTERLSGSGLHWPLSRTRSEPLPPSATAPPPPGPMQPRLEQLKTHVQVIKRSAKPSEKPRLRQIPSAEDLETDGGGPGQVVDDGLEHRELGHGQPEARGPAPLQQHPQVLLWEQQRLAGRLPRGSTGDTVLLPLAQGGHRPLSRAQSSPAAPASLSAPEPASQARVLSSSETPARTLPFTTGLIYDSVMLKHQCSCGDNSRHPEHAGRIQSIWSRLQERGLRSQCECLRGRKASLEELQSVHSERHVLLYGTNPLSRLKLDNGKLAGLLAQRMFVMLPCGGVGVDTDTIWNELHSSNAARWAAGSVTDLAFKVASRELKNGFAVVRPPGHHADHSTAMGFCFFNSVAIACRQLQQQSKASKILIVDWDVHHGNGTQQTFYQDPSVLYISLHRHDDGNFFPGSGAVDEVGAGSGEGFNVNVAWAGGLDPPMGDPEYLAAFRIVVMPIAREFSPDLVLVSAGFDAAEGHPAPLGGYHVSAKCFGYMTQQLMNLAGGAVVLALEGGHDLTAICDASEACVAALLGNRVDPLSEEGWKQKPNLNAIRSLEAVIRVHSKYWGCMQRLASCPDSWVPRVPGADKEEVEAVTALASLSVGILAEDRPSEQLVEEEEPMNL
outcomeMeasure: IC50

Entry CN1C[C@H](C(=O)Nc2ccc(Cl)cc2)[C@@H](c2ccc(/C=C/C(=O)Nc3ccccc3N)cc2)C1 , system Histone deacetylase 7 (Homo sapiens, UniProt Q8WUI4): what IC50 was measured?
> 30 µM

* * *

experiment: Oral bioavailability in Sprague-Dawley rat at 10 mg/kg by LC-MS/MS method
Type: ADME, organism-based
appliedConditions: in vivo
outcomeMeasure: bioavailability
Don't forget the unit after the number, please.

Dear colleague, I am looking for the recorded bioavailability of the following compound: CN1C[C@H](C(=O)Nc2ccc(Cl)cc2)[C@@H](c2ccc(/C=C/C(=O)Nc3ccccc3N)nn2)C1 (racemic)
9%

* * *

IC50, UniProt:P11712, per-entry values.
Sequence (P11712 whole entry): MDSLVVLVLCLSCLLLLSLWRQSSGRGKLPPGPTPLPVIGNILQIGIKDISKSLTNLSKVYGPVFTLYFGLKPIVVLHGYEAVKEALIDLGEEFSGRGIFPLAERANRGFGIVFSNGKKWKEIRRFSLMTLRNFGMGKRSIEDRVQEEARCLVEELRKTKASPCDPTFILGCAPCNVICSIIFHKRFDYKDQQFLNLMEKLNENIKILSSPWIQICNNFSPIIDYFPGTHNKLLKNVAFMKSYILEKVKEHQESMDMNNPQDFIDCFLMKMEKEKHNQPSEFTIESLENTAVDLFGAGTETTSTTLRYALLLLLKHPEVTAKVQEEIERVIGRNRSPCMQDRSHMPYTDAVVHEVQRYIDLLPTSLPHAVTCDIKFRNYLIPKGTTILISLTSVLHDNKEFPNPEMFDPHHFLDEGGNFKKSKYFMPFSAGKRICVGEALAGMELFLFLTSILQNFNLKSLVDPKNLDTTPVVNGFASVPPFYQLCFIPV
Record the value in µM, omitting the unit from your answer.

Record Nc1ccccc1NC(=O)/C=C/c1ccc([C@H]2CN(CCO)C[C@@H]2C(=O)Nc2ccc(Cl)cc2)cc1 (racemic) : what is its IC50 with UniProt:P11712?
3

With those in mind, consider the next molecule.
Please tell me: IC50 of CN1C[C@H](C(=O)Nc2ccc(Cl)cc2)[C@@H](c2ccc(/C=C/C(=O)Nc3ccccc3N)cc2)C1 , system UniProt:P11712?
29

* * *

Documented CLhep predicted at 1 µM across a set of molecules
experiment: Clearance in human liver microsomes at 1 uM incubated for 10 mins by LC-MS/MS method
Type: ADME, Microsome
// note: answer is a bare numeric in mL/min/kg

Illustrative cases are given below, each with its answer.
// CLhep predicted at 1 µM lookup, key: CN1C[C@H](C(=O)Nc2ccc(Cl)cn2)[C@@H](c2ccc(/C=C/C(=O)Nc3ccccc3N)cc2)C1 (racemic)
13

// query CLhep predicted at 1 µM value for entry Nc1ccccc1NC(=O)/C=C/c1ccc([C@H]2CN(C3CCOCC3)C[C@@H]2C(=O)Nc2ccc(Cl)cc2)cc1 (racemic)
12

Give its CLhep predicted at 1 µM value. Item: Cc1cccc(NC(=O)[C@H]2CN(C)C[C@@H]2c2ccc(/C=C/C(=O)Nc3ccccc3N)cc2)c1 (racemic)
14

Can you share its CLhep predicted at 1 µM? I mean this molecule: Nc1ccccc1NC(=O)/C=C/c1ccc([C@H]2CN(Cc3ccccc3)C[C@@H]2C(=O)Nc2ccc(Cl)cc2)cc1 (racemic)
3

Please look up its CLhep predicted at 1 µM: CN1C[C@H](C(=O)Nc2ccc(F)c(Cl)c2)[C@@H](c2ccc(/C=C/C(=O)Nc3ccccc3N)cc2)C1 (racemic)
15

// query CLhep predicted at 1 µM value for entry CN1C[C@H](C(=O)Nc2ccc(Cl)cc2)[C@@H](c2ccc(/C=C/C(=O)Nc3ccccc3N)nc2)C1 (racemic)
12

Request the reported CLhep predicted at 1 µM associated with CN1C[C@H](C(=O)Nc2cccnc2)[C@@H](c2ccc(/C=C/C(=O)Nc3ccccc3N)cc2)C1 (racemic)
10

Recorded CLhep predicted at 1 µM of CN1C[C@H](C(=O)Nc2ccc(C3CC3)cc2)[C@@H](c2ccc(/C=C/C(=O)Nc3ccccc3N)cc2)C1 (racemic) , please.
12

---
Param item = Cc1ccc(NC(=O)[C@H]2CN(C)C[C@@H]2c2ccc(/C=C/C(=O)Nc3ccccc3N)cc2)cc1 (racemic) ; retrieve measured CLhep predicted at 1 µM.
15

Item Nc1ccccc1NC(=O)/C=C/c1ccc([C@H]2CN(CC(F)F)C[C@@H]2C(=O)Nc2ccc(Cl)cc2)cc1 (racemic) has what recorded CLhep predicted at 1 µM?
16

For Nc1ccccc1NC(=O)/C=C/c1ccc([C@H]2CN(C3COC3)C[C@@H]2C(=O)Nc2ccc(Cl)cc2)cc1 (racemic) , what is its reported CLhep predicted at 1 µM?
13

Name the recorded CLhep predicted at 1 µM for CN1C[C@H](C(=O)Nc2ccc(Cl)cc2)[C@@H](c2ccc(/C=C/C(=O)Nc3ccccc3N)cc2)C1 (racemic) .
5

// query CLhep predicted at 1 µM value for entry CN1C[C@H](C(=O)Nc2ccc(F)cc2)[C@@H](c2ccc(/C=C/C(=O)Nc3ccccc3N)cc2)C1 (racemic)
5

Data request, read-out CLhep predicted at 1 µM, for CN1C[C@H](C(=O)NC2CC2)[C@@H](c2ccc(/C=C/C(=O)Nc3ccccc3N)cc2)C1 (racemic)
10

What value of CLhep predicted at 1 µM has been reported for the following molecule? CCN(CC)C(=O)N1C[C@H](C(=O)Nc2ccc(Cl)cc2)[C@@H](c2ccc(/C=C/C(=O)Nc3ccccc3N)cc2)C1 (racemic)
19
